Assay: Pharmacokinetics test using mice
Assay type: in vivo
Conditions: male, Balb/C, mouse, plasma, IV (1 mg/kg)
Procedure: 6 to 8 week-old male Balb/C mice weighing 22-29 g were acclimatized for about 1 week, and then 12 mice for each group were divided into an intravenous administration group and an oral administration group and used in the experiment. The mice were fasted before administration of the compound and were allowed to drink water ad libitum. Feed was provided 2 hours after administration of the compound. […]
readout type: AUC(0-t) (ng·h/mL)
Provide the reading as a plain figure in ng·h/mL.

Task item: State the recorded AUC(0-t) for this entry: Nc1ncc(-c2cc(-c3cnn(CC(F)(F)F)c3)ccc2F)nc1C(=O)N[C@@H]1CNC[C@@H](F)C1
Reply: 267

* * *

assay: Pharmacokinetics test using mice; format: in vivo; settings: male, Balb/C, mouse, plasma, IV (1 mg/kg), read-out: C0/Cmax
readout type: Cmax (ng/mL)
Provide the reading as a plain figure in ng/mL.

Task item: State the recorded Cmax for this entry: Nc1ncc(-c2cc(-c3cnn(CC(F)(F)F)c3)ccc2F)nc1C(=O)N[C@@H]1CNC[C@@H](F)C1
Reply: 231

* * *

Entries below carry reported IC50 on Chk1 kinase (Homo sapiens (Human), UniProt O14757).
Sequence (O14757 whole entry): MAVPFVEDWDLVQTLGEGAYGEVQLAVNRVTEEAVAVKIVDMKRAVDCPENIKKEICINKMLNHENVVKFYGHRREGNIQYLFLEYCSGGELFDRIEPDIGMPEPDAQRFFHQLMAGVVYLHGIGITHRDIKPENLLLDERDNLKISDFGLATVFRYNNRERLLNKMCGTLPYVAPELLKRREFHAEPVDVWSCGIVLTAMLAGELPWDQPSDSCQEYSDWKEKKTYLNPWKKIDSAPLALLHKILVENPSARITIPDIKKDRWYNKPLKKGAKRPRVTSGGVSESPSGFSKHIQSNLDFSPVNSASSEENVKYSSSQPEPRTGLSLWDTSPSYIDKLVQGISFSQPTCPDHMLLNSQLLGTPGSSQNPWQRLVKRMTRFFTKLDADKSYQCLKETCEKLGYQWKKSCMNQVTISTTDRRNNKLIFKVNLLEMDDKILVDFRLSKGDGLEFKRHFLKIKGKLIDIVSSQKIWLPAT

Task item: State the recorded IC50 for this entry: CC(C)(O)Cn1cc(-c2cccc(-c3cnc(N)c(C(=O)N[C@@H]4CNCC[C@H]4O)n3)c2)cn1
Reply: > 1000 nM

Task item: State the recorded IC50 for this entry: N#CCn1cc(-c2cccc(-c3cnc(N)c(C(=O)N[C@@H]4CNCC[C@H]4O)n3)c2)cn1
Reply: > 1000 nM

Task item: State the recorded IC50 for this entry: CC1(C)Cc2c(-c3cccc(-c4cnc(N)c(C(=O)N[C@H]5CCC6(CC6)NC5)n4)c3)cnn2C1 (stereo in doubt)
Reply: 10 to 100 nM

Task item: State the recorded IC50 for this entry: Cn1cc(-c2cccc(-c3cnc(N)c(C(=O)N[C@H]4CCCNC4)n3)c2)cn1
Reply: 10 to 100 nM

Task item: State the recorded IC50 for this entry: CC1(C)Cc2c(-c3ccc(F)c(-c4cnc(N)c(C(=O)N[C@H]5CCC6(CC6)NC5)n4)c3)cnn2C1 [Example 46]
Reply: > 1000 nM

Task item: State the recorded IC50 for this entry: CC1(C)Cc2c(-c3cccc(-c4cnc(N)c(C(=O)N[C@@H]5CNC[C@@H](F)C5)n4)c3)cnn2C1
Reply: 100 to 1000 nM

Task item: State the recorded IC50 for this entry: CC1(C)Cc2c(-c3ccc(F)c(-c4cnc(N)c(C(=O)N[C@H]5CCC6(CC6)NC5)n4)c3)cnn2C1 (stereo in doubt) [Example 66]
Reply: > 1000 nM

Task item: State the recorded IC50 for this entry: CC(C)(O)Cn1cc(-c2cccc(-c3cnc(N)c(C(=O)N[C@H]4CCCNC4)n3)c2)cn1
Reply: 10 to 100 nM

Task item: State the recorded IC50 for this entry: CC(C)(O)Cn1cc(-c2cccc(-c3cnc(N)c(C(=O)N[C@@H]4CNC[C@@H](F)C4)n3)c2)cn1
Reply: 10 to 100 nM

Task item: State the recorded IC50 for this entry: Nc1ncc(-c2cc(-c3cnn(CC(F)(F)F)c3)ncc2F)nc1C(=O)N[C@@H]1CNCC(F)(F)C1
Reply: > 1000 nM

Task item: State the recorded IC50 for this entry: N#CCn1cc(-c2cccc(-c3cnc(N)c(C(=O)N[C@@H]4CNC[C@@H](F)C4)n3)c2)cn1
Reply: 100 to 1000 nM

Task item: State the recorded IC50 for this entry: Nc1ncc(-c2ccnc(-c3cnn(CC(F)(F)F)c3)c2)nc1C(=O)N[C@@H]1CNCC[C@H]1O
Reply: 100 to 1000 nM

Task item: State the recorded IC50 for this entry: CC1(C)Cc2c(-c3cccc(-c4cnc(N)c(C(=O)N[C@@H]5CNCC(F)(F)C5)n4)c3)cnn2C1
Reply: > 1000 nM

Task item: State the recorded IC50 for this entry: CC(C)(O)Cn1cc(-c2cc(-c3cnc(N)c(C(=O)N[C@@H]4CNC[C@@H](F)C4)n3)ccn2)cn1
Reply: 10 to 100 nM

Task item: State the recorded IC50 for this entry: CC(C)(O)Cn1cc(-c2cc(-c3cnc(N)c(C(=O)N[C@@H]4CNCC(F)(F)C4)n3)ccn2)cn1
Reply: > 1000 nM
